Test system: calcium channel (e.g., L-type, N-type, etc.) current
Assay: HEK assay (whole-cell patch clamp of calcium channel currents in transiently transfected HEK-293T/17 cells)
Format: cell-based
Details: whole-cell voltage clamp, holding potential −100 mV
Reported values of IC50 for individual entries
Please respond with the number in nM and leave the unit unwritten.

Examples from the recorded data:
| Molecule | Unit name | IC50 |
| --- | --- | --- |
| COc1ccc(C(=O)CSc2nnc(CNc3ccc(F)cc3)n2-c2ccc(C)cc2)cc1 [Compound 5] | nM | 378 |
| COc1ccc(C(=O)CSc2nnc(-c3ccccc3OC)n2-c2ccc(C)cc2)cc1 [Compound 28] | nM | 572 |

// next item, IC50 requested
Please state recorded IC50 (tested on calcium channel (e.g., L-type, N-type, etc.) current) of COc1ccccc1-c1nnc(SCC(=O)Nc2ccccn2)n1-c1ccc(C)cc1 [Compound 27]
695
